System: PC12 cells
ASSAY_REMARKS: Etoposide-induced apoptosis in PC12 cells, cell viability
Format: cell-based
DETAILS: Rattus norvegicus, PC-12; 1 μM compound; etoposide-induced apoptosis, PC12 cells; read-out: % Viability 1 μM

[
  {
    "SMILES_REPRESENTATION": "Nc1ccc(N(Cc2ccc(F)cc2)C(=O)OCc2ccccc2)cc1N",
    "OUTPUT_UNIT": "%",
    "viability at 1 µM": 69.1
  },
  {
    "SMILES_REPRESENTATION": "Nc1nc(NCc2ccc(F)cc2)ccc1NC(=O)OCC1c2ccccc2-c2ccccc21",
    "OUTPUT_UNIT": "%",
    "viability at 1 µM": 69
  },
  {
    "SMILES_REPRESENTATION": "CCOC(=O)Nc1ccc(NCc2ccc(OC)cc2)nc1N",
    "OUTPUT_UNIT": "%",
    "viability at 1 µM": 71.8
  }
]

* * *

Tested on: PC12 cells
ASSAY_REMARKS: Etoposide-induced apoptosis in PC12 cells, cell viability
Type: cell-based
DETAILS: Rattus norvegicus, PC-12; 3 μM compound; etoposide-induced apoptosis, PC12 cells; read-out: % Viability 3 μM
Each entry below carries its reported viability at 3 µM.
READOUT: viability at 3 µM (%)

[
  {
    "MOLECULE": "Cc1ccc(OC(=O)Nc2ccc(NCc3ccc(F)cc3)cc2N)cc1",
    "TESTED_TARGET": "PC12 cells",
    "REPORTED": 91.6
  },
  {
    "MOLECULE": "CC(C)COC(=O)Nc1ccc(NCc2ccc(F)cc2)nc1N",
    "TESTED_TARGET": "PC12 cells",
    "REPORTED": 62.9
  },
  {
    "MOLECULE": "CCOC(=O)Nc1ccc(NCc2ccc(SC(F)(F)F)cc2)nc1N",
    "TESTED_TARGET": "PC12 cells",
    "REPORTED": 79.2
  },
  {
    "MOLECULE": "CCOC(=O)Nc1ccc(NCc2ccccc2C(F)(F)F)nc1N",
    "TESTED_TARGET": "PC12 cells",
    "REPORTED": 91.5
  },
  {
    "MOLECULE": "CCOC(=O)Nc1ccc(NCc2ccc(C)cc2C)nc1N",
    "TESTED_TARGET": "PC12 cells",
    "REPORTED": 87.9
  },
  {
    "MOLECULE": "Nc1nc(NCc2ccc(F)cc2)ccc1NC(=O)OCC(Cl)(Cl)Cl",
    "TESTED_TARGET": "PC12 cells",
    "REPORTED": 77.2
  },
  {
    "MOLECULE": "CCOC(=O)Nc1ccc(NCc2ccc(C(F)(F)F)cc2)nc1",
    "TESTED_TARGET": "PC12 cells",
    "REPORTED": 64
  },
  {
    "MOLECULE": "Nc1nc(NCc2ccc(F)cc2)ccc1NC(=O)OCC1c2ccccc2-c2ccccc21",
    "TESTED_TARGET": "PC12 cells",
    "REPORTED": 56.4
  },
  {
    "MOLECULE": "CCOC(=O)Nc1ccc(NCc2ccccc2)nc1N",
    "TESTED_TARGET": "PC12 cells",
    "REPORTED": 78.6
  },
  {
    "MOLECULE": "CCOC(=O)Nc1ccc(NCc2ccc(C)cc2)cc1N",
    "TESTED_TARGET": "PC12 cells",
    "REPORTED": 136
  },
  {
    "MOLECULE": "CC(Cl)OC(=O)Nc1ccc(NCc2ccc(F)cc2)nc1N (stereo not shown)",
    "TESTED_TARGET": "PC12 cells",
    "REPORTED": 88.9
  },
  {
    "MOLECULE": "CCOC(=O)Nc1ccc(NCc2cccc(C)c2)nc1N",
    "TESTED_TARGET": "PC12 cells",
    "REPORTED": 82.3
  },
  {
    "MOLECULE": "CCOC(=O)Nc1ccc(NCc2ccc3ccccc3c2)nc1N",
    "TESTED_TARGET": "PC12 cells",
    "REPORTED": 57.6
  },
  {
    "MOLECULE": "CCOC(=O)Nc1ccc(NCc2ccc(OC(F)(F)F)cc2)nc1N",
    "TESTED_TARGET": "PC12 cells",
    "REPORTED": 95.3
  },
  {
    "MOLECULE": "COC(=O)Nc1ccc(NCc2ccc(F)cc2)nc1N",
    "TESTED_TARGET": "PC12 cells",
    "REPORTED": 96.6
  },
  {
    "MOLECULE": "CCOC(=O)Nc1ccc(NCc2ccc(-c3cccs3)cc2)nc1N",
    "TESTED_TARGET": "PC12 cells",
    "REPORTED": 76.1
  },
  {
    "MOLECULE": "CCOC(=O)Nc1ccc(NCCc2ccccc2)nc1N",
    "TESTED_TARGET": "PC12 cells",
    "REPORTED": 50
  },
  {
    "MOLECULE": "C=CCOC(=O)Nc1ccc(NCc2ccc(Cl)cc2)nc1N",
    "TESTED_TARGET": "PC12 cells",
    "REPORTED": 79.7
  },
  {
    "MOLECULE": "COC(=O)Nc1ccc(NCc2cccc(C(F)(F)F)c2)nc1N",
    "TESTED_TARGET": "PC12 cells",
    "REPORTED": 41.3
  },
  {
    "MOLECULE": "CC(C)(C)OC(=O)Nc1ccc(NCc2ccc(F)cc2)nc1N",
    "TESTED_TARGET": "PC12 cells",
    "REPORTED": 42.2
  },
  {
    "MOLECULE": "CCOC(=O)Nc1ccc(NCc2ccc(C(F)(F)F)cc2)nc1N",
    "TESTED_TARGET": "PC12 cells",
    "REPORTED": 71.5
  },
  {
    "MOLECULE": "Nc1nc(NCc2ccccc2C(F)(F)F)ccc1NC(=O)OCC(Cl)(Cl)Cl",
    "TESTED_TARGET": "PC12 cells",
    "REPORTED": 108
  },
  {
    "MOLECULE": "CCOC(=O)Nc1ccc(N2CCOCC2)nc1N",
    "TESTED_TARGET": "PC12 cells",
    "REPORTED": 88.7
  },
  {
    "MOLECULE": "CCOC(=O)Nc1ccc(NCc2ccc(OC)cc2)nc1N",
    "TESTED_TARGET": "PC12 cells",
    "REPORTED": 79.7
  },
  {
    "MOLECULE": "CCOC(=O)Nc1ccc(NCc2ccc(F)cc2)nc1N [NK-1-4, reference compound]",
    "TESTED_TARGET": "PC12 cells",
    "REPORTED": 78.1
  },
  {
    "MOLECULE": "C=CCOC(=O)Nc1ccc(NCc2ccc(F)cc2)nc1N",
    "TESTED_TARGET": "PC12 cells",
    "REPORTED": 86.8
  },
  {
    "MOLECULE": "CCOC(=O)Nc1ccc(NCc2cc(F)cc(C(F)(F)F)c2)nc1N",
    "TESTED_TARGET": "PC12 cells",
    "REPORTED": 72.9
  },
  {
    "MOLECULE": "C#CCOC(=O)Nc1ccc(NCc2ccc(F)cc2)nc1N",
    "TESTED_TARGET": "PC12 cells",
    "REPORTED": 61.9
  },
  {
    "MOLECULE": "Nc1nc(NCc2ccc(F)cc2)ccc1NC(=O)Oc1ccccc1",
    "TESTED_TARGET": "PC12 cells",
    "REPORTED": 59
  },
  {
    "MOLECULE": "CCOC(=O)Nc1ccc(NCc2ccc(-c3ccccc3)cc2)nc1N",
    "TESTED_TARGET": "PC12 cells",
    "REPORTED": 48.9
  },
  {
    "MOLECULE": "CCOC(=O)Nc1ccc(NCc2cc(C(F)(F)F)cc(C(F)(F)F)c2)nc1N",
    "TESTED_TARGET": "PC12 cells",
    "REPORTED": 75.7
  },
  {
    "MOLECULE": "C=CCOC(=O)Nc1ccc(NCc2cccc(C(F)(F)F)c2)nc1N",
    "TESTED_TARGET": "PC12 cells",
    "REPORTED": 107
  },
  {
    "MOLECULE": "Nc1ccc(N(Cc2ccc(F)cc2)C(=O)OCc2ccccc2)cc1N",
    "TESTED_TARGET": "PC12 cells",
    "REPORTED": 100
  },
  {
    "MOLECULE": "CCOC(=O)Nc1ccc(NCc2ccc(Cl)cc2)nc1N",
    "TESTED_TARGET": "PC12 cells",
    "REPORTED": 64.3
  }
]
